- PROCEDURE_DETAILS: self-splicing fitness, log relative to wild type (ln ratio); higher = more splicing; Tetrahymena group I intron in knt gene, E. coli kanamycin selection, DiMSum; sequences stand for … in CUCUCU…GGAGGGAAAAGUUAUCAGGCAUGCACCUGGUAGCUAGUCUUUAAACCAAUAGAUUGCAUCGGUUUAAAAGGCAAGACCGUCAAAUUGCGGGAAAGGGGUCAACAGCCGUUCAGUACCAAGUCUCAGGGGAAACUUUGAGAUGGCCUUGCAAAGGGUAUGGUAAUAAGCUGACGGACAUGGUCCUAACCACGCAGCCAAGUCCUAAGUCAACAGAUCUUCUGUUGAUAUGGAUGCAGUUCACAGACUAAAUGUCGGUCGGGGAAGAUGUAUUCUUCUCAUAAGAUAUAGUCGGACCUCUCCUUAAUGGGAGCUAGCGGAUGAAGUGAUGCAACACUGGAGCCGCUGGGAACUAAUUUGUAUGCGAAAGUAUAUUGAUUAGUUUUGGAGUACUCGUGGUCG;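 note: selection with 25 µg/mL kanamycin versus none on LB agar overnight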
- CONDITION_CONTEXT: 37 °C
PROPERTY_NAME: self-splicing fitness (ln)
Answers are plain numbers.

GCUAAGCAAUAUUACGCGAG = -1.18
UGUCAGCAAUAUUACGUUGC = -1.75
CAUAAGCAAUAUUACGGCCU = -2.79

Quick batch: self-splicing fitness (ln) for everything below.
1. UAAAAGCAAUAUUACGCCAU
2. ACCAAGCAAUAUUACGUCAC

1. -2.82
2. -2.89
